Taken from patent US12263248B2.

- assay_text: Apparent (surface) pKa of the LNP formulation (TNS assay)
- Assay type: physicochemical
- applied_conditions: Table 1A
Tag: t if measured pKa is not below 7, f if it is.

> print(dat)
                                   molecule  category.label
1  CCCCCCCCC(CC)OC(=O)CCCCCCCN(CCO)CCCCCCCC(=O)OC(CCCCCCCC)CCCCCCCC (centres unmarked)               f
2  CCCCCCCCCOC(=O)CCCCCCCN(CCCCCCCC(=O)OC(CCCCCCCC)CCCCCCCC)C(C)CO (centres unmarked)               f
3  CCCCCCCCCOC(=O)CCCCCCCN(CCCCCCCC(=O)OC(CCCCCCCC)CCCCCCCC)CCOC               f
4  CCCCCCCCCOC(=O)CCCCCCCN(CCO)CCCCCCCC(=O)OC(CCCCCC)CCCCCCCC (centres unmarked)               f
5  CCCCCCCCC(CCCCCCCC)OC(=O)CCCCCCCN(CCO)CCCCCCCC(=O)OCC1CC1CCCCCC (centres unmarked)               f
6  CCCCCCCCCOC(=O)CCCCCCCN(CCO)CCCCCCCC(=O)OC1CCC(CCCCC)CC1 (centres unmarked)               t

----------
- assay_text: Residual lipid levels in rat liver and spleen (UPLC-MS)
- Type: in vivo
- applied_conditions: liver, 48 hours
As shown below, each of these compounds has a reported % lipid remaining in liver after 48 hours value.
metric_name: % lipid remaining in liver after 48 hours (%)

> print(dat)
                                   compound  reported.value
1  CCCCCCCCCOC(=O)CCCCCCCN(CCO)CCCCCCCC(=O)OC(CCCCCCCC)CCCCCCCC           0.018
2  CCCCCCCCC(C)OC(=O)CCCCCCCN(CCO)CCCCCCCC(=O)OC(CCCCCCCC)CCCCCCCC (centres unmarked)            11.4
3  CCCCCCCCCOC(=O)CCCN(CCO)CCCCCCCC(=O)OC(CCCCCCCC)CCCCCCCC              20
4  CCCCC/C=C\C/C=C\CCCCCCCCC(CCCCCCCC/C=C\C/C=C\CCCCC)OC(=O)CCCN(C)C [MC3, DLin-MC3-DMA, reference compound]              87
5  CCCCCCCCCCCOC(=O)CCCCCN(CCO)CCCCCCCC(=O)OC(CCCCCCCC)CCCCCCCC            1.32

----------
- assay_text: Particle size and polydispersity index of nanoparticle compositions (Zetasizer Nano ZS)
- Format: physicochemical
- applied_conditions: Table 1D; for subcutaneous administration; # formulated with hEPO mRNA
- Experimental: A Zetasizer Nano ZS (Malvern Instruments Ltd, Malvern, Worcestershire, UK) can be used to determine the particle size, the polydispersity index (PDI) and the zeta potential of the nanoparticle compositions in 1×PBS in determining particle size and 15 mM PBS in determining zeta potential.
metric_name: Size (nm)

> print(dat)
                                    compound  scale.unit  reported.value
 1  CCCCCCCCCC(=O)OC(C)CCCCCCN(CCO)CCCCCCCOC(=O)C(CCCCCCCC)CCCCCCCC (centres unmarked) [Compound 165]          nm            74.3
 2  CCCCCCCCCC(=O)OC(C)CCCCCCN(CCO)CCCCCCCC(=O)OC(CCCCCCCC)CCCCCCCC (centres unmarked) [Compound 98]          nm            74.8
 3  CCCCCCCCC(CC)OC(=O)CCCCCCCN(CCO)CCCCCCCC(=O)OC(CCCCCCCC)CCCCCCCC (centres unmarked) [Compound 49]          nm            74.0
 4  CCCCCCCCCC(=O)OCCCCCCCN(CCO)CCCCCCCC(=O)OC(CCCCCCCC)CCCCCCCC [Compound 96]          nm            82.6
 5  CCCCCCCCCOC(=O)CCCCCCCN(CCCCCCCC(=O)OC(CCCCCCCC)CCCCCCCC)CCCNC(=S)N(C)C [Compound 111]          nm            94.5
 6  CCCCCCCCCOC(=O)CCCCCCCN(CCCCCCCC(=O)OC(CCCCCCCC)CCCCCCCC)CCCNC(=N)N [Compound 207]          nm            81.4
 7  CCCC/C=C\CCC(CC/C=C\CCCC)OC(=O)CCCCCCCN(CCO)CCCCCCCC(=O)OCCCCCCCCC [Compound 60]          nm            87.4
 8  CCCCCCCCCCCOC(=O)CCCCCN(CCO)CCCCCCCC(=O)OC(CCCCCCCC)CCCCCCCC [Compound 25]          nm            77.6
 9  CCCCCCCCC(C)OC(=O)CCCCCCCN(CCO)CCCCCCCC(=O)OC(CCCCCCCC)CCCCCCCC (centres unmarked) [Compound 48]          nm            79.8
10  CCCCCCCCCOC(=O)CCCCCCCN(CCCCCCCC(=O)OC(CCCCCCCC)CCCCCCCC)CCCN/C(=N/S(C)(=O)=O)N(C)C [Compound 233]          nm            87.0
11  CCCCCCCCCOC(=O)CCCCCCCN(CCO)CCCCCCCOC(=O)C(CCCCCCCC)CCCCCCCC [Compound 30]          nm            89.8
12  CCCCCCCCCOC(=O)CCCCCCCN(CCCCCCCC(=O)OC(CCCCCCCC)CCCCCCCC)CCCN/C(=N/C#N)N(C)C [Compound 168]          nm            87.4
13  CCCCCCCCCC(=O)OCCCCCCCN(CCO)CCCCCCCOC(=O)C(CCCCCCCC)CCCCCCCC [Compound 151]          nm            77.6
14  CCCCCCCCCOC(=O)C(C)CCCCCCN(CCO)CCCCCCCOC(=O)C(CCCCCCCC)CCCCCCCC (centres unmarked) [Compound 163]          nm            78.0
15  CCCCCCCCCOC(=O)CCCCCCCN(CCO)CCCCCCCC(=O)OC(CCCCCCCC)CCCCCCCC [Compound 18]          nm            75.0
16  CCCCCCCCCOC(=O)C(C)CCCCCCN(CCO)CCCCCCCC(=O)OC(CCCCCCCC)CCCCCCCC (centres unmarked) [Compound 164]          nm            75.7
17  CCCCC/C=C\C/C=C\CCCCCCCCC(CCCCCCCC/C=C\C/C=C\CCCCC)OC(=O)CCCN(C)C [MC3, DLin-MC3-DMA, reference compound]          nm            69.1
